All values here come from patent US11932653B2.

System: EV71
method description: In-vitro experiment against EV71 virus (RD cells, MTT)
Type: cell-based
measurement parameters: selectivity index, EV71, RD cells
Please enter true where SI is greater than or equal to 90, and false where it is lower.

Solved cases (4 shown):
O=C(CSc1ccccc1)OC1C(O)C=C2CCN3Cc4cc5c(cc4C1C23)OCO5 (centres unmarked) :: false
O=C(COc1ccc2ccccc2c1)OC1C(O)C=C2CCN3Cc4cc5c(cc4C1C23)OCO5 (centres unmarked) :: false
O=C(CCCOc1ccccc1)OC1C(O)C=C2CCN3Cc4cc5c(cc4C1C23)OCO5 (centres unmarked) :: false
CC(C)c1ccc(OCC(=O)OC2C(O)C=C3CCN4Cc5cc6c(cc5C2C34)OCO6)cc1 (centres unmarked) :: false

Problem: Assess whether reported SI for O=C(COc1ccccc1)OC1C(O)C=C2CCN3Cc4cc5c(cc4C1C23)OCO5 (centres unmarked) sits at 90 or higher.
Result: false

Problem: Now the same for COc1ccc(OCC(=O)OC2C(O)C=C3CCN4Cc5cc6c(cc5C2C34)OCO6)cc1 (centres unmarked)
Result: true

Problem: Try the molecule O=C(CCc1ccccc1)OC1C(O)C=C2CCN3Cc4cc5c(cc4C1C23)OCO5 (centres unmarked)
Result: false

Problem: Input Cc1ccc(OCC(=O)OC2C(O)C=C3CCN4Cc5cc6c(cc5C2C34)OCO6)c(C)c1 (centres unmarked)
Result: true

Problem: Can you check O=C(COc1ccc(F)cc1)OC1C(O)C=C2CCN3Cc4cc5c(cc4C1C23)OCO5 (centres unmarked) next?
Result: true

Problem: Another: O=C(COc1ccc(Br)cc1)OC1C(O)C=C2CCN3Cc4cc5c(cc4C1C23)OCO5 (centres unmarked)
Result: false

* * *

Test system: EV71
method description: In-vitro experiment against EV71 virus (RD cells, MTT)
Format: cell-based
measurement parameters: selectivity index, EV71, RD cells
test readout: SI

O=C(COc1ccccc1Cl)OC1C(O)C=C2CCN3Cc4cc5c(cc4C1C23)OCO5 (stereo not shown) :: 89.10
O=C(COc1cccc(Cl)c1)OC1C(O)C=C2CCN3Cc4cc5c(cc4C1C23)OCO5 (stereo not shown) :: 87.61
O=C(CSc1ccc(Cl)cc1)OC1C(O)C=C2CCN3Cc4cc5c(cc4C1C23)OCO5 (stereo not shown) :: 89.40

Problem: # query: SI | item Cc1ccc(OCC(=O)OC2C(O)C=C3CCN4Cc5cc6c(cc5C2C34)OCO6)cc1 (stereo not shown) | system: EV71
Result: 87.73
